So I've got a bunch of molecules here, and I need their Vd values.
assay_explanation: Volume of distribution at steady state in Sprague-Dawley rat
Type: ADME, organism-based
assay_conditions: in vivo, read-out: Vdss

See these solved cases before continuing.
1) COCCOc1cnc2ccn([C@H](C)c3nnc4ccc(-c5cc(C)no5)cn34)c(=O)c2c1 1 L/kg
2) COc1cnc2ccn([C@H](C)c3nnc4ccc(-c5cnn(C)c5)cn34)c(=O)c2c1 1.2 L/kg
3) COCCOc1cnc2ccn([C@H](C)c3nnc4ccc(-c5cnn(C)c5)cn34)c(=O)c2c1 1.3 L/kg

Consider the record given below.
I would be grateful if you could share the reported Vd for COc1cnc2ccn([C@H](C)c3nnc4c(F)cc(-c5cc(C)no5)cn34)c(=O)c2c1 .
0.5 L/kg

* * *

assay_explanation: Half life in Sprague-Dawley rat
Assay type: ADME, organism-based
assay_conditions: in vivo
For each record, check the reported half-life: if it is below 2 h write T, else write F.

Observe how each entry below is paired with its result.
1) COc1cnc2ccn([C@H](C)c3nnc4c(F)cc(-c5cc(C)no5)cn34)c(=O)c2c1 T
2) Cc1cc(-c2cc(F)c3nnc([C@@H](C)n4ccc5ncccc5c4=O)n3c2)on1 T
3) COCCOc1cnc2ccn([C@H](C)c3nnc4ccc(-c5cnn(C)c5)cn34)c(=O)c2c1 T
4) COc1cnc2c(NCc3nnc4ccc(-c5cc(C)ns5)nn34)ccnc2c1 T
5) COCCOc1cnc2ccc([C@H](C)c3nnc4c(F)cc(-c5cc(C)no5)cn34)cc2c1 F

hey, is half-life for COCCOc1cnc2ccn([C@H](C)c3nnc4c(F)cc(-c5cnn(C)c5)cn34)c(=O)c2c1 lower than 2 h or not?
F

In plain terms, does COc1cnc2ccn([C@H](C)c3nnc4ccc(-c5cnn(C)c5)cn34)c(=O)c2c1 come in under 2 h for half-life?
T

* * *

assay_explanation: Fraction unbound in mouse plasma at 5 ug/ml by equilibrium dialysis method
Format: ADME, cell-free
Give measured fraction unbound at 5 ug/ml for each item. Keep answers brief.
One number for each entry.

Some solved entries appear below for comparison.
compound	fraction unbound at 5 ug/ml
COc1cnc2ccn([C@H](C)c3nnc4c(F)cc(-c5cnn(C)c5)cn34)c(=O)c2c1	0.353
COCCOc1cnc2ccn([C@H](C)c3nnc4ccc(-c5cnn(C)c5)cn34)c(=O)c2c1	0.424
COc1cnc2ccn([C@H](C)c3nnc4ccc(-c5cnn(C)c5)cn34)c(=O)c2c1	0.409

// for each compound in input: emit fraction unbound at 5 ug/ml
1. COCCOc1cnc2ccn([C@H](C)c3nnc4ccc(-c5cc(C)no5)cn34)c(=O)c2c1
2. COCCOc1cnc2ccn([C@H](C)c3nnc4c(F)cc(-c5cnn(C)c5)cn34)c(=O)c2c1 [AMG-337]
3. C[C@H](c1nnc2c(F)cc(-c3cnn(C)c3)cn12)n1ccc2ncccc2c1=O
4. COCCOc1cnc2ccn([C@H](C)c3nnc4c(F)cc(-c5cc(C)no5)cn34)c(=O)c2c1
5. Cc1cc(-c2cc(F)c3nnc([C@@H](C)n4ccc5ncccc5c4=O)n3c2)on1

1. 0.435
2. 0.366
3. 0.376
4. 0.317
5. 0.245

* * *

assay_explanation: Intrinsic clearance in human liver microsomes
Type: ADME
assay_conditions: read-out: CLH
property: microsomal CLint (µL/min/mg)
Numbers only, in µL/min/mg.

Batch: microsomal CLint for all items listed.
1. Cc1cc(-c2cc(F)c3nnc([C@@H](C)n4ccc5ncccc5c4=O)n3c2)on1
2. COCCOc1cnc2ccn([C@H](C)c3nnc4c(F)cc(-c5cc(C)no5)cn34)c(=O)c2c1
3. COCCOc1cnc2ccn([C@H](C)c3nnc4c(F)cc(-c5cnn(C)c5)cn34)c(=O)c2c1 [AMG-337]
4. COCCOc1cnc2ccn([C@H](C)c3nnc4ccc(-c5cnn(C)c5)cn34)c(=O)c2c1
5. COCCOc1cnc2ccn([C@H](C)c3nnc4ccc(-c5cc(C)no5)cn34)c(=O)c2c1

[14, 20, 9, 8, 7]

* * *

Assignment: determine reported CL free for the given molecules.
Organism: Rattus norvegicus
assay_explanation: Unbound clearance in Sprague-Dawley rat at 5 ug/ml by equilibrium dialysis method
Type: ADME, organism-based
assay_conditions: in vivo
Answers are plain numbers, in mL/min/kg.

1) COCCOc1cnc2ccn([C@H](C)c3nnc4c(F)cc(-c5cnn(C)c5)cn34)c(=O)c2c1 26.7
2) COc1cnc2ccn([C@H](C)c3nnc4c(F)cc(-c5cnn(C)c5)cn34)c(=O)c2c1 15
3) Cc1cc(-c2cc(F)c3nnc([C@@H](C)n4ccc5ncccc5c4=O)n3c2)on1 31.7
4) C[C@H](c1nnc2c(F)cc(-c3cnn(C)c3)cn12)n1ccc2ncccc2c1=O 17
5) COCCOc1cnc2ccc([C@H](C)c3nnc4c(F)cc(-c5cc(C)no5)cn34)cc2c1 433
6) COc1cnc2ccn([C@H](C)c3nnc4ccc(-c5cnn(C)c5)cn34)c(=O)c2c1 53.3
7) COc1cnc2c(NCc3nnc4ccc(-c5cc(C)ns5)nn34)ccnc2c1 433
8) COc1ccc2c(OCc3nnc4ccc(-c5cc(F)c(F)c(F)c5)nn34)ccnc2c1 967

With those in mind, consider the next molecule.
Which measured CL free value corresponds to COCCOc1cnc2ccn([C@H](C)c3nnc4ccc(-c5cnn(C)c5)cn34)c(=O)c2c1 ?
40

* * *

assay_explanation: Clearance in Beagle dog at 0.713 mg/kg, iv
Type: ADME, organism-based, Canis lupus familiaris
assay_conditions: in vivo
property: clearance

Look up clearance: COCCOc1cnc2ccn([C@H](C)c3nnc4c(F)cc(-c5cnn(C)c5)cn34)c(=O)c2c1
3.83 mL/min/kg

* * *

assay_explanation: AUC(0 to infinity) in Beagle dog at 10 mg/kg,po
Format: ADME, organism-based, Canis lupus familiaris
Set-up: dose 10 mg/kg, route oral, time infinity
assay_conditions: in vivo
property: AUC(0-inf) (ng·h/mL)
Answers are plain numbers, in ng·h/mL.

compound	unit_abbrev	AUC(0-inf)
COCCOc1cnc2ccn([C@H](C)c3nnc4c(F)cc(-c5cnn(C)c5)cn34)c(=O)c2c1 [AMG-337]	ng·h/mL	21000

As a next step, examine the compound that follows.
Which AUC(0-inf) is reported for this compound? COCCOc1cnc2ccn([C@H](C)c3nnc4ccc(-c5cc(C)no5)cn34)c(=O)c2c1
19300

* * *

assay_explanation: Fraction unbound in Sprague-Dawley rat plasma at 5 ug/ml by equilibrium dialysis method
Type: ADME, cell-free
Classification field: enter true (1) for fraction unbound at 5 ug/ml values not below 0.2, false (0) for values below it.

1) COCCOc1cnc2ccn([C@H](C)c3nnc4ccc(-c5cnn(C)c5)cn34)c(=O)c2c1 true (1)
2) COCCOc1cnc2ccn([C@H](C)c3nnc4c(F)cc(-c5cc(C)no5)cn34)c(=O)c2c1 false (0)
3) COc1cnc2ccn([C@H](C)c3nnc4c(F)cc(-c5cnn(C)c5)cn34)c(=O)c2c1 false (0)
4) C[C@H](c1nnc2c(F)cc(-c3cnn(C)c3)cn12)n1ccc2ncccc2c1=O true (1)
5) COCCOc1cnc2ccn([C@H](C)c3nnc4ccc(-c5cc(C)no5)cn34)c(=O)c2c1 false (0)

Let's switch to this compound now.
Say whether COCCOc1cnc2ccn([C@H](C)c3nnc4c(F)cc(-c5cnn(C)c5)cn34)c(=O)c2c1 shows fraction unbound at 5 ug/ml of 0.2 or more.
false (0)

* * *

Provide the reported Activity of each item.
System: Mus musculus
assay_explanation: In vivo inhibition of HGF-induced phosphorylation of MET in Balb/c mouse liver assessed as phosphorylated cMET level at 10 mg/kg administered via oral gavage followed by HGF injection 9 hrs post dose by electrochemiluminescence immunoassay relative to control
Type: functional
Set-up: scale not given: the % may be the effect or the level left
One number for each entry, in %.

1. Cc1cc(-c2cc(F)c3nnc([C@@H](C)n4ccc5ncccc5c4=O)n3c2)on1 91
2. COCCOc1cnc2ccn([C@H](C)c3nnc4c(F)cc(-c5cc(C)no5)cn34)c(=O)c2c1 99
3. COCCOc1cnc2ccn([C@H](C)c3nnc4ccc(-c5cc(C)no5)cn34)c(=O)c2c1 108

Now look at this one.
Form field: Activity recorded for COCCOc1cnc2ccn([C@H](C)c3nnc4c(F)cc(-c5cnn(C)c5)cn34)c(=O)c2c1 with Mus musculus (enter value)
92

* * *

assay_explanation: AUC(0 to infinity) in Beagle dog at 30 mg/kg, po
Assay type: ADME, organism-based, Canis lupus familiaris
Design: dose 30 mg/kg, time infinity, route oral
assay_conditions: in vivo
Exercise: state measured AUC(0-inf) for each of the compounds provided.
One number for each entry, in ng·h/mL.

1. COCCOc1cnc2ccn([C@H](C)c3nnc4c(F)cc(-c5cnn(C)c5)cn34)c(=O)c2c1 82600

Can you share its AUC(0-inf)? I mean this compound: COCCOc1cnc2ccn([C@H](C)c3nnc4ccc(-c5cc(C)no5)cn34)c(=O)c2c1
94100
